Recorded MIC Range, one value per entry.
System: MRSA strains from cystic fibrosis patients
assayText: CLSI microdilution MICs against 40 MRSA strains
Format: cell-based, Staphylococcus aureus
measurementParameters: microdilution, 40 MRSA strains
measureName: MIC Range

>  <compound>
CC(=O)NC[C@H]1CN(c2ccc(N3CCOCC3)c(F)c2)C(=O)O1 [Linezolid]

>  <result>
1 to 4 µg/mL

$$$$
>  <compound>
CCCCCCCCCC(=O)N[C@@H](Cc1c[nH]c2ccccc12)C(=O)N[C@H](CC(N)=O)C(=O)N[C@@H](CC(=O)O)C(=O)N[C@@H]1C(=O)NCC(=O)N[C@@H](CCCN)C(=O)N[C@@H](CC(=O)O)C(=O)N[C@H](C)C(=O)N[C@@H](CC(=O)O)C(=O)NCC(=O)N[C@H](CO)C(=O)N[C@@H]([C@H](C)CC(=O)O)C(=O)N[C@@H](CC(=O)c2ccccc2N)C(=O)O[C@@H]1C [Daptomycin]

>  <result>
0.5-1^ μg/ml

$$$$
>  <compound>
CN(C)c1cc(NC(=O)CNC(C)(C)C)c(O)c2c1C[C@H]1C[C@H]3[C@H](N(C)C)C(O)=C(C(N)=O)C(=O)[C@@]3(O)C(O)=C1C2=O [Tigecycline]

>  <result>
0.12 to 0.25 µg/mL

$$$$
>  <compound>
CC(=O)O[C@H]1C[C@@]2(C)[C@@H](C[C@@H](O)[C@H]3[C@@]4(C)CC[C@@H](O)[C@@H](C)[C@@H]4CC[C@@]32C)/C1=C(\CCC=C(C)C)C(=O)[O-].[Na+] [CEM-102, Sodium fusidate]

>  <result>
0.12 to 0.5 µg/mL

$$$$
>  <compound>
CN[C@H](CC(C)C)C(=O)N[C@H]1C(=O)N[C@@H](CC(N)=O)C(=O)N[C@H]2C(=O)N[C@H]3C(=O)N[C@H](C(=O)N[C@H](C(=O)O)c4cc(O)cc(O)c4-c4cc3ccc4O)[C@H](O)c3ccc(c(Cl)c3)Oc3cc2cc(c3O[C@@H]2O[C@H](CO)[C@@H](O)[C@H](O)[C@H]2O[C@H]2C[C@](C)(N)[C@H](O)[C@H](C)O2)Oc2ccc(cc2Cl)[C@H]1O [Vancomycin]

>  <result>
0.5-1^ μg/ml

$$$$

Hey, just so you know, these numbers are from patent US20130164351A1.
